Reference for the values: patent US12673944B2

TESTED ON: glucosylceramide synthase (GCS) (Homo sapiens, UniProt Q16739)
Construct: The obtained supernatant was used
Sequence (Q16739 whole entry): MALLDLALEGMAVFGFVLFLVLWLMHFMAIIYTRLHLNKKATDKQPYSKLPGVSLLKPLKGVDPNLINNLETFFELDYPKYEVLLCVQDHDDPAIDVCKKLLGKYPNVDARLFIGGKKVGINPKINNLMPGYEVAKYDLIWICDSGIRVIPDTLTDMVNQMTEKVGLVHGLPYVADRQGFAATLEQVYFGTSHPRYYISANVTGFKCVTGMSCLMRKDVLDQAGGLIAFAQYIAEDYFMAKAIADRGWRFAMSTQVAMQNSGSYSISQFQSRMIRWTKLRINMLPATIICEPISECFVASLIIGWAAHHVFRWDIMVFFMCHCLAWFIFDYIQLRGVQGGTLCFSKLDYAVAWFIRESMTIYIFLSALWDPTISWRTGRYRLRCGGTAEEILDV
TEST NAME: GCS enzyme inhibition assay (A549 cell lysate, NBD C6-ceramide, HPLC fluorescence)
CONDITION CONTEXT: inhibitory activity against GCS, 37° C., 90 minutes
pIC50: −log10 of the molar value.
Each entry gets f if its pIC50 stays under 9, and t if its pIC50 is 9 or above.

Exercise: Assess whether reported pIC50 for O=C(NC1CCOc2cc(-c3ccccc3OC(F)(F)F)ccc21)O[C@@H]1CN2CCC1CC2 (stereo partly shown) sits at 9 or higher.
Solution: f

Exercise: Assess whether reported pIC50 for CC1(C)COc2cc(-c3ccccc3C#N)ccc2C1NC(=O)O[C@@H]1CN2CCC1CC2 (stereo partly shown) sits at 9 or higher.
Solution: t

Exercise: Assess whether reported pIC50 for CCOc1ccc(-c2ccc3c(c2)OCC(C)(C)C3NC(=O)O[C@@H]2CN3CCC2CC3)cc1 (stereo partly shown) sits at 9 or higher.
Solution: t

Exercise: Assess whether reported pIC50 for CC1(C)COc2cc(-c3ccc(F)cc3)c(F)cc2C1NC(=O)O[C@@H]1CN2CCC1CC2 (stereo partly shown) sits at 9 or higher.
Solution: t

Exercise: Assess whether reported pIC50 for Cc1ccc(-c2ccc3c(c2)OCC(C)(C)C3NC(=O)O[C@@H]2CN3CCC2CC3)c2cccnc12 (stereo partly shown) sits at 9 or higher.
Solution: f

Exercise: Assess whether reported pIC50 for COc1ncc(-c2ccc3c(c2)OCCC3NC(=O)O[C@@H]2CN3CCC2CC3)cc1C(F)(F)F (stereo partly shown) sits at 9 or higher.
Solution: f

Exercise: Assess whether reported pIC50 for CC1(C)COc2cc(-c3ccc(F)nc3F)ccc2C1NC(=O)O[C@@H]1CN2CCC1CC2 (stereo partly shown) sits at 9 or higher.
Solution: f

Exercise: Assess whether reported pIC50 for O=C(NC1CCOc2cc(-c3cc4ccccc4s3)ccc21)O[C@@H]1CN2CCC1CC2 (stereo partly shown) sits at 9 or higher.
Solution: f

Exercise: Assess whether reported pIC50 for CC1(C)COc2cc(-c3ccc(OC(F)(F)F)cc3)ccc2C1NC(=O)O[C@@H]1CN2CCC1CC2 (stereo partly shown) sits at 9 or higher.
Solution: t

Exercise: Assess whether reported pIC50 for CC1(C)COc2cc(-c3cnc(C4CC4)nc3)ccc2C1NC(=O)O[C@@H]1CN2CCC1CC2 (stereo partly shown) sits at 9 or higher.
Solution: f

Exercise: Assess whether reported pIC50 for CCCCc1ccc(-c2cc3c(cc2OC)C(NC(=O)O[C@@H]2CN4CCC2CC4)C(C)(C)CO3)cc1 (stereo partly shown) sits at 9 or higher.
Solution: t

Exercise: Assess whether reported pIC50 for CC1(C)COc2cc(-c3ccsc3)c(F)cc2C1NC(=O)O[C@@H]1CN2CCC1CC2 (stereo partly shown) sits at 9 or higher.
Solution: t

Exercise: Assess whether reported pIC50 for Cn1c(-c2ccc3c(c2)OCCC3NC(=O)O[C@@H]2CN3CCC2CC3)cc2ccccc21 (stereo partly shown) sits at 9 or higher.
Solution: f

Exercise: Assess whether reported pIC50 for CC1(C)COc2cc(-c3ccccc3OC(F)(F)F)ccc2C1NC(=O)O[C@@H]1CN2CCC1CC2 (stereo partly shown) sits at 9 or higher.
Solution: t

Exercise: Assess whether reported pIC50 for CC(C)c1cccc(-c2ccc3c(c2)COCC3NC(=O)O[C@@H]2CN3CCC2CC3)c1 (stereo partly shown) sits at 9 or higher.
Solution: f

Exercise: Assess whether reported pIC50 for Cc1cscc1-c1ccc2c(c1)OCCC2(C)NC(=O)O[C@@H]1CN2CCC1CC2 (stereo partly shown) sits at 9 or higher.
Solution: t

Exercise: Assess whether reported pIC50 for CC1(C)COc2cc(-c3cc(F)ccc3Cl)ccc2C1NC(=O)O[C@@H]1CN2CCC1CC2 (stereo partly shown) sits at 9 or higher.
Solution: t
